Data provenance: paper PMC11009412

TGT: 14-3-3 epsilon (YWHAE) (UniProt P62258)
Sequence (P62258 whole entry): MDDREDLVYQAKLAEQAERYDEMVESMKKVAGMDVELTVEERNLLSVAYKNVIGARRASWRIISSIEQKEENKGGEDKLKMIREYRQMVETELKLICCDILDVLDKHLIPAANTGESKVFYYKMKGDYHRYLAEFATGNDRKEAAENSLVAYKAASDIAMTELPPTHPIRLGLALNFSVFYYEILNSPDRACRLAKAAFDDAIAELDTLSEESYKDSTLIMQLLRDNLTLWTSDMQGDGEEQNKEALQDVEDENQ
ASSAY OVERVIEW: ITC; PEAQ-ITC, 18 °C, 400 µM peptide in the syringe, 25 µM 14-3-3ε in the reaction chamber; 20 mM HEPES pH 7.0, 150 mM NaCl, 2 mM DTT
QUANTITY NAME: pKd
Interpret pKd as the negative base-10 log of the concentration measured in mol/L.

Request: Provide only the value of recorded pKd for GATAD1 phosphopeptide 95-LRNTKYKpSAPAAEKK-109
Response: 5.47
